These entries and their values trace back to ChEMBL document CHEMBL3988442.

Biological target: Chromo domain-containing protein 1 (Saccharomyces cerevisiae (strain ATCC 204508 / S288c) (Baker's yeast))
Assay: ScCHD-1 Enzyme Inhibition Assay; further: in the data most compounds retested in dose-response had high values
Type: functional
Design: scale not given: direction of the effect not stated beside the values
Conditions: 30 µM

compound: COC[C@@H]1CC[C@H]2[C@H](CCN2S(=O)(=O)c2ccc(OC)cc2)O1
Percent Effect / %: 1.57
//
compound: COc1cc(C)c(S(=O)(=O)NCc2cccnc2N(C)C)c(C)c1
Percent Effect / %: -10.7
//
compound: COc1cccc(S(=O)(=O)CCN2CCCCC2)c1
Percent Effect / %: -9.16
//
compound: CCS(=O)(=O)N1Cc2nccn2CC(COc2cccnc2)C1 (configuration not stated)
Percent Effect / %: -8.7
//
compound: COCCN(C)C[C@@H]1CCC[C@@H]2CN(c3cc(OC)ncn3)C[C@@H]21
Percent Effect / %: 0.558
//
compound: CC(C)n1ccnc1C1CCN(Cc2ccc(Cl)c(F)c2)CC1
Percent Effect / %: 0.763
//
compound: CCS(=O)(=O)c1ccc(N2CCC(NC(=O)CCC(C)C)CC2)cc1
Percent Effect / %: -4.64
//
compound: CN(C)C(C(=O)N1CCCC1)c1ccccc1F (configuration not stated)
Percent Effect / %: -0.0422
//
compound: c1ccc(Cn2cc3c(n2)C(CNCc2ccco2)OCC3)nc1 (configuration not stated)
Percent Effect / %: -1.79
//
compound: CCOc1ccnc(N2CCN(C(=O)C(C)(C)C#N)CC2)n1
Percent Effect / %: -2.03
//
compound: COc1ccccc1OCC(=O)NS(=O)(=O)c1ccc(Br)s1
Percent Effect / %: -3.46
//
compound: Cc1ccc2c(c1)CCC21CCN(C(=O)CO)CC1
Percent Effect / %: -7.19
//
compound: CC(C)c1nnc2n1CCN(C(=O)c1ccnc(N(C)C)c1)C2
Percent Effect / %: -12.4
//
compound: Cc1[nH]c(=O)[nH]c(=O)c1CN1CCCC(CCc2ccccc2)C1 (configuration not stated)
Percent Effect / %: -3.68
//
compound: Cc1ccc(C(=O)Nc2cn[nH]c2)cn1
Percent Effect / %: -10.8
//
compound: Cn1ccc(CN2CCC(CO)CC2)cc1=O
Percent Effect / %: -1.56
//
compound: CCc1cc(C(=O)N2CCCC2c2nc(C)c(F)c(O)n2)on1 (configuration not stated)
Percent Effect / %: -19.6
//
compound: O=C(c1cccnc1)N1CCn2nnc(COc3cccnc3)c2C1
Percent Effect / %: 2.46
//
compound: O=C(NC1CCCC1)N1CCCC(c2nccn2Cc2ccncc2)C1 (configuration not stated)
Percent Effect / %: -4.06
//
compound: Cc1cnc(CN(C)C2CCN(CCn3cc(C#N)cn3)C2)o1 (configuration not stated)
Percent Effect / %: -2.79
//
compound: Cc1cc(NC(=O)NCC(C)O)n(C)n1 (configuration not stated)
Percent Effect / %: -14.2
//
compound: CS(=O)(=O)NCc1cc2n(n1)CCCN(Cc1cccc(C#N)c1)C2
Percent Effect / %: 88
//
compound: COCC(=O)N1CCN(Cc2coc(-c3cccc(F)c3)n2)CC1
Percent Effect / %: 1.75
//
compound: CNC(=O)C1Cn2ccnc2C2(CCN(Cc3cccnc3)CC2)O1 (configuration not stated)
Percent Effect / %: -0.425
//
compound: CC(=O)NCC(=O)N1CCN(CC2CC2)c2ncccc2C1
Percent Effect / %: -2.61
//
compound: COc1ccc(NC(=O)Cn2nc(C)c(C)cc2=O)cc1OC
Percent Effect / %: -7.49
//
compound: COc1ccc(C2CC(=O)Nc3c2nc2n3CCCC2)cc1O (configuration not stated)
Percent Effect / %: -3.18
//
compound: CCc1cnc(N2CCC3(CC2)CN(c2cccnc2)C(=O)CO3)nc1
Percent Effect / %: 6.26
//
compound: Cn1cccc1C(=O)N1CCCC2(CCCN2Cc2cccnc2)C1 (configuration not stated)
Percent Effect / %: -0.361
//
compound: CC(c1nc(C2CC2)no1)N1CCN(Cc2cccc(C#N)c2)CC1 (configuration not stated)
Percent Effect / %: -0.399
//
compound: COCCN1CCc2cc(C(=O)N(C)C)c(NCC3CC3)nc2CC1
Percent Effect / %: -0.0365
//
compound: CCn1ncc(NC(=O)c2cc(C3CC3)nc3c2c(C)nn3C)c1C
Percent Effect / %: -28.1
//
compound: c1cnn(CC2CN(Cc3ccc(-n4ccnc4)cc3)CCO2)c1 (configuration not stated)
Percent Effect / %: -2.59
//
compound: COc1cccc(-c2nccnc2C2CCN(C(C)=O)CC2)c1
Percent Effect / %: -14.9
//
compound: Cc1ccccc1-c1noc(CN2CCn3c(nnc3C3CC3)C2)n1
Percent Effect / %: -7.86
//
compound: NC(=O)CC1CCN(C(=O)CCOc2ccc(Cl)cc2)CC1
Percent Effect / %: -8.66
//
compound: O=C(NCC1CCOC1)N1CCN(Cc2ccc3c(c2)CCO3)CC1 (configuration not stated)
Percent Effect / %: -7.08

---

Entries and their Percent Effect
Target: Protein translocase subunit SecA (Escherichia coli (strain K12))
Assay: Assay to Identify E. coli SecA ATPase Inhibitors
Type: functional
Set-up: scale not given: direction of the effect not stated beside the values
Details: 30 µM
Results with a measured potency or affinity are listed apart.
measuredEndpoint: Percent Effect (%)

compound: CC(C)N(C)CCCNC(=O)c1cnc(-c2ccccc2)nc1
resultUnits: %
measuredResult: -6.93
--
compound: COc1cccc(-c2noc(C3CCN(Cc4cn(C)nc4C)C3)n2)c1 (stereo unspecified)
resultUnits: %
measuredResult: -3.83
--
compound: CCNC(=O)NC(=O)CSC(C)c1ccccc1F (stereo unspecified)
resultUnits: %
measuredResult: -2.26
--
compound: Cn1cc(CN2CCCn3cnc(CN4CCCC4=O)c3C2)cn1
resultUnits: %
measuredResult: -2.78
--
compound: O=C(c1ccccn1)N1Cc2nccn2CC(COc2cccnc2)C1 (stereo unspecified)
resultUnits: %
measuredResult: 0.812
--
compound: CCn1cnnc1CNC(=O)CCC(=O)c1ccc2c(c1)OCCO2
resultUnits: %
measuredResult: -8.9

---

Species on record: Homo sapiens
Test: To identify inhibition of the IFN signalling (Jak-Stat) pathway via expression of an eGFP reporter gene under the control of an IFN-stimulated response element (ISRE) containing MxA promoter.
Type: functional
Set-up: scale not given: direction of the effect not stated beside the values
Settings: 30 µM
Entries and their Percent Effect
measuredEndpoint: Percent Effect

compound: Cc1nccn1Cc1nnc(C2CCCN(Cc3cccnc3)C2)n1C (stereo not drawn)
measuredEndpoint: Percent Effect
measuredResult: 5.04%
//
compound: CC1CCCN(Cc2coc(-c3cccc(F)c3)n2)C1 (stereo not drawn)
measuredEndpoint: Percent Effect
measuredResult: 3.77%
//
compound: CN(CCO)Cc1nnc(C2CCN(C(=O)c3cccnc3)CC2)n1C
measuredEndpoint: Percent Effect
measuredResult: 4.06%

---

Entries and their Percent Effect
Target: Arginase-2, mitochondrial (Homo sapiens) (UniProt P78540)
Sequence (P78540 whole entry): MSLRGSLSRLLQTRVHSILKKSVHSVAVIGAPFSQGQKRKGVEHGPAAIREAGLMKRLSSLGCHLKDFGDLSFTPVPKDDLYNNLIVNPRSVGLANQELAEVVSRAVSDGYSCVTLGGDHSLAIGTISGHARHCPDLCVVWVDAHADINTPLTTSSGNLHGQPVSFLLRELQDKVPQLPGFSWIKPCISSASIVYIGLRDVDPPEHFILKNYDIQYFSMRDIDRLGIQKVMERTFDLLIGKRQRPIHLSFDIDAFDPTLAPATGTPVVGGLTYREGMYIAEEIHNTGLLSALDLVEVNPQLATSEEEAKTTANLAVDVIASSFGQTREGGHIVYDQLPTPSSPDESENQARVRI
Assay: in vitro enzyme assay to detect the production of urea directly proportional to the activity of Arginase II; further: in the data most compounds retested in dose-response had high values
Format: functional
Parameters: scale not given: direction of the effect not stated beside the values
Settings: 33.3 µM

molecule: COc1ccc(CN2C[C@H]3CN(c4ccsc4)C(=O)[C@H]3C2)cc1
targetEntity: Arginase-2, mitochondrial (Homo sapiens) (UniProt P78540)
Percent Effect: 0.955%
--
molecule: COc1ccc2c(c1)OC1(CCN(Cc3ccc(F)cc3)CC1)CC2=O
targetEntity: Arginase-2, mitochondrial (Homo sapiens) (UniProt P78540)
Percent Effect: 2.74%
--
molecule: CCc1cnc(N2CCC3(CC2)CN(c2cccnc2)C(=O)CO3)nc1
targetEntity: Arginase-2, mitochondrial (Homo sapiens) (UniProt P78540)
Percent Effect: -4.78%
--
molecule: Cc1nn(C)c(C)c1C1CCCN1Cc1nc(C2CC2)no1 (centres undefined)
targetEntity: Arginase-2, mitochondrial (Homo sapiens) (UniProt P78540)
Percent Effect: -0.924%

---

Entries and their Percent Effect
Test system: Trypanosoma cruzi
Assay: Trypanosoma cruzi phosphomannomutase and mannose-1-phosphate guanylyltransferase assay
Assay type: functional
Set-up: scale not given: direction of the effect not stated beside the values
Conditions: 10 µM
measuredEndpoint: Percent Effect

molecule: CCSc1ccc(C(=O)Nc2c(C)nn(C(C)C)c2C)cn1
measuredResult: -0.198%

molecule: CC(NC(=O)NCCCN1CCCCCC1)c1nncn1C (stereo not drawn)
measuredResult: 6.78%

molecule: Cc1noc(C)c1-c1cnc(CC2CCN(C(=O)c3cc[nH]n3)C2)cn1 (stereo not drawn)
measuredResult: -2.37%

molecule: CN1CCC(NC(=O)NCCNc2ccccn2)CC1
measuredResult: 4.92%

molecule: COCC(=O)N1CCC(c2nccn2CC2CC2)CC1
measuredResult: 5.41%

molecule: Cn1cc(C(=O)N2CCCC(n3cccn3)C2)c2ccccc21 (stereo not drawn)
measuredResult: -5.62%

molecule: Cc1ccc(CNC(=O)NCc2cccnc2N(C)C)s1
measuredResult: -4.68%

molecule: CCN1CCN(Cc2ccnc(-c3cccnc3)n2)CC1
measuredResult: -0.79%
